Below is a list of entries, each paired with its recorded melting point value.

molecule=CN(C)c1ccc(C=Cc2cc3cc(O)ccc3o2)cc1 readout_label="melting point" endpoint_value="177 to 178 °C"
molecule=CCCc1cc2cc(OCC(=O)OCC)c(Cl)c(Cl)c2s1 readout_label="melting point" endpoint_value="62 to 63 °C"
molecule=CCn1nnc(-c2ccc(C(=O)N[C@@H]3CCCC[C@@H]3c3ccc(OC)c(OC)c3)cc2)n1 readout_label="melting point" endpoint_value="188 to 192 °C"
molecule=COC(=O)c1ccc(C(=O)Nc2nc(-c3cccc(C)c3)c(-c3ccncn3)s2)cc1 readout_label="melting point" endpoint_value="339 to 341 °C"
molecule="COc1ccc2c(c1)S(=O)(=O)C(C(=O)Nc1ccc(F)cc1)C(=O)N2C (stereo not drawn)" readout_label="melting point" endpoint_value="202 to 204 °C"
molecule=CNc1ccc(-c2ncn(-c3ccc(C(F)(F)F)cc3)n2)cc1 readout_label="melting point" endpoint_value="106 to 113 °C"

With those in mind, consider the next molecule.
Value of measured melting point for the entry `CON1C(=O)CC2(CCN(C(=O)OCc3ccccc3)CC2)C1=O` : 98 °C

Data origin, for the record: a melting point compilation (Tetko et al.; mined from patent text by program, amines drawn as free bases though some values may be those of a salt)
